All figures here come from patent US20240124469A1.

Assay: Pharmacokinetic test
Type: in vivo
Settings: female, mouse, plasma; BALB/c mice, oral administration, 50 mg/kg; read-out: Terminal t1/2 (converted)
Readings of half-life for the listed compounds
readout label: half-life (h)

compound: OC[C@@H]1CC[C@@H](Nc2ccc3ncc(-c4ccc(C(F)(F)F)s4)n3n2)CO1
unit symbol: h
result: 0.91

compound: CC(C)(O)[C@H]1CC[C@H](Nc2ccc3ncc(-c4ccc(C(F)(F)F)s4)n3n2)CC1
unit symbol: h
result: 3.5

compound: OC12CCC(Nc3ccc4ncc(-c5ccc(C(F)(F)F)s5)n4n3)(CC1)CC2
unit symbol: h
result: 1.41

compound: CC(C)(O)[C@H]1CC[C@H](Nc2ccc3ncc(-c4cccc(C(F)(F)F)c4)n3n2)CC1 [TP-3654, reference compound]
unit symbol: h
result: 1.33

====

Target: PIM2 (Homo sapiens (Human), UniProt Q9P1W9)
Sequence (Q9P1W9 whole entry): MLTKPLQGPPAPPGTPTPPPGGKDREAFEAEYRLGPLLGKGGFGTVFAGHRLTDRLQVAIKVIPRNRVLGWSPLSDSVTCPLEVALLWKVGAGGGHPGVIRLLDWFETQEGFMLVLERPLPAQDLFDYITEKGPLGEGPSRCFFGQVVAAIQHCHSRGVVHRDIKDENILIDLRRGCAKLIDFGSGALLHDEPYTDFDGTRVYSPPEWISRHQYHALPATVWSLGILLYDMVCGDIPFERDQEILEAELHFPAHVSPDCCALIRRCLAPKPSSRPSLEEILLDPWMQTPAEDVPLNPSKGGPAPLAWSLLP
Test: PIM2 kinase activity test (Mobility shift assay)
Type: biochemical
readout label: IC50

compound: OC[C@@H]1CC[C@@H](Nc2ccc3ncc(-c4cccc(C(F)(F)F)c4)n3n2)CO1 [Compound 22]
assayed target: PIM2 (Homo sapiens (Human), UniProt Q9P1W9)
result: 1000 to 10000 nM
//
compound: FC(F)(F)c1cccc(-c2cnc3ccc(NC4CC5(CCNCC5)C4)nn23)c1 [Compound 16]
assayed target: PIM2 (Homo sapiens (Human), UniProt Q9P1W9)
result: 100 to 1000 nM
//
compound: CC(C)(O)[C@H]1CC[C@H](Nc2ccc3ncc(-c4cccc(C(F)(F)F)c4)n3n2)CC1 [TP-3654, reference compound]
assayed target: PIM2 (Homo sapiens (Human), UniProt Q9P1W9)
result: 100 to 1000 nM
//
compound: OC12CCC(Nc3ccc4ncc(-c5ccc(C(F)(F)F)s5)n4n3)(CC1)CC2 [Compound 29]
assayed target: PIM2 (Homo sapiens (Human), UniProt Q9P1W9)
result: 10 to 100 nM
//
compound: OC[C@H]1CC[C@H](Nc2ccc3ncc(-c4cccc(C(F)(F)F)c4)n3n2)CO1 [Compound 25]
assayed target: PIM2 (Homo sapiens (Human), UniProt Q9P1W9)
result: > 10000 nM
//
compound: CC(C)(O)[C@H]1CC[C@H](Nc2ccc3ncc(-c4cccs4)n3n2)CC1 [Compound 14]
assayed target: PIM2 (Homo sapiens (Human), UniProt Q9P1W9)
result: 100 to 1000 nM
//
compound: CN1CCC(CNc2ccc3ncc(-c4cccc(N(C)C)c4)n3n2)CC1 [Compound 50]
assayed target: PIM2 (Homo sapiens (Human), UniProt Q9P1W9)
result: > 10000 nM
//
compound: CN1CCCC(Nc2ccc3ncc(-c4cccc(C(F)(F)F)c4)n3n2)CC1 (centres unmarked) [Compound 27]
assayed target: PIM2 (Homo sapiens (Human), UniProt Q9P1W9)
result: 100 to 1000 nM

====

Readings of IC50 for the listed molecules
Target: PIM3 (Homo sapiens (Human), UniProt Q86V86)
Experiment: PIM3 kinase activity test (Mobility shift assay)
Assay type: biochemical
readout label: IC50

molecule: CC(C)(O)[C@H]1CC[C@H](Nc2ccc3ncc(-c4cccs4)n3n2)CC1 [Compound 14]
readout label: IC50
result: 100 to 1000 nM

molecule: FC(F)(F)c1cccc(-c2cnc3ccc(NCC4CC5(CCNCC5)C4)nn23)c1 [Compound 15]
readout label: IC50
result: 100 to 1000 nM

molecule: OC12CCC(Nc3ccc4ncc(-c5ccc(C(F)(F)F)s5)n4n3)(CC1)CC2 [Compound 29]
readout label: IC50
result: 10 to 100 nM

molecule: CC(C)(O)[C@H]1CC[C@H](Nc2ccc3ncc(-c4nccs4)n3n2)CC1 [Compound 17]
readout label: IC50
result: 100 to 1000 nM

molecule: OC[C@@H]1CC[C@@H](Nc2ccc3ncc(-c4cccc(C(F)(F)F)c4)n3n2)CO1 [Compound 22]
readout label: IC50
result: 1000 to 10000 nM

molecule: CN1CCC2(CC1)CC(Nc1ccc3ncc(-c4cccc(C(F)(F)F)c4)n3n1)C2 [Compound 26]
readout label: IC50
result: 100 to 1000 nM

molecule: CC(C)(O)[C@H]1CC[C@H](Nc2ccc3ncc(-c4cccc(S(C)(=O)=O)c4)n3n2)CC1 [Compound 51]
readout label: IC50
result: > 10000 nM

molecule: O[C@H]1CCC[C@@H](Nc2ccc3ncc(-c4cccc(C(F)(F)F)c4)n3n2)CC1 (relative stereo) [Compound 23]
readout label: IC50
result: 1000 to 10000 nM

molecule: FC(F)(F)c1ccc(-c2cnc3ccc(NC4CC5(CCNCC5)C4)nn23)s1 [Compound 31]
readout label: IC50
result: 10 to 100 nM

molecule: CC(C)(O)[C@H]1CC[C@H](Nc2ccc3ncc(-c4cccc(C(F)(F)F)c4)n3n2)CC1 [TP-3654, reference compound]
readout label: IC50
result: 100 to 1000 nM

molecule: FC(F)(F)c1cccc(-c2cnc3ccc(NC4CCCNCC4)nn23)c1 (stereo not shown) [Compound 19]
readout label: IC50
result: 10 to 100 nM

molecule: OC[C@@H]1CC[C@@H](Nc2ccc3ncc(-c4ccc(C(F)(F)F)s4)n3n2)CO1 [Compound 46]
readout label: IC50
result: 100 to 1000 nM

molecule: O[C@H]1CCCC[C@@H](Nc2ccc3ncc(-c4cccc(C(F)(F)F)c4)n3n2)C1 [Compound 21]
readout label: IC50
result: 1000 to 10000 nM

molecule: FC(F)(F)c1cccc(-c2cnc3ccc(NC4CC5(CCNCC5)C4)nn23)c1 [Compound 16]
readout label: IC50
result: 10 to 100 nM

molecule: FC(F)(F)c1ccc(-c2cnc3ccc(NC4CCCNCC4)nn23)s1 (stereo not shown) [Compound 28]
readout label: IC50
result: 10 to 100 nM

molecule: CC(C)(O)[C@H]1CC[C@H](Nc2ccc3ncc(-c4ccc(C(F)(F)F)s4)n3n2)CC1 [Compound 20]
readout label: IC50
result: 10 to 100 nM

====

Molecular target: PIM3 (Homo sapiens (Human))
Experiment: PIM3 kinase activity test (Mobility shift assay)
Type: biochemical
readout label: IC50

compound: FC(F)(F)c1cccc(-c2cnc3ccc(NCC4CC5(CCNC5)C4)nn23)c1 (stereo not shown) [Compound 18]
result: 100 to 1000 nM
//
compound: CC(C)(O)[C@H]1CC[C@H](Nc2ccc3nc(C(=O)O)c(-c4cccc(C(F)(F)F)c4)n3n2)CC1 [Compound 42]
result: 1000 to 10000 nM
//
compound: FC(F)(F)c1cccc(-c2cnc3ccc(NC4CC5(CCNC5)C4)nn23)c1 (stereo not shown) [Compound 24]
result: 100 to 1000 nM
//
compound: O[C@@H]1CCCC[C@@H](Nc2ccc3ncc(-c4cccc(C(F)(F)F)c4)n3n2)C1 [Compound 44]
result: > 10000 nM

====

Readings of AUC(0-t) for the listed compounds
Assay: Pharmacokinetic test
Assay type: in vivo
Settings: female, mouse, plasma; BALB/c mice, intravenous injection, 2 mg/kg
readout label: AUC(0-t) (ng·h/mL)

compound: OC12CCC(Nc3ccc4ncc(-c5ccc(C(F)(F)F)s5)n4n3)(CC1)CC2 [Compound 29]
result: 859
//
compound: CC(C)(O)[C@H]1CC[C@H](Nc2ccc3ncc(-c4ccc(C(F)(F)F)s4)n3n2)CC1 [Compound 20]
result: 1090
//
compound: CC(C)(O)[C@H]1CC[C@H](Nc2ccc3ncc(-c4cccc(C(F)(F)F)c4)n3n2)CC1 [TP-3654, reference compound]
result: 652
//
compound: OC[C@@H]1CC[C@@H](Nc2ccc3ncc(-c4ccc(C(F)(F)F)s4)n3n2)CO1 [Compound 46]
result: 523

====

Molecular target: PIM1 (Homo sapiens (Human))
Sequence (P11309 whole entry): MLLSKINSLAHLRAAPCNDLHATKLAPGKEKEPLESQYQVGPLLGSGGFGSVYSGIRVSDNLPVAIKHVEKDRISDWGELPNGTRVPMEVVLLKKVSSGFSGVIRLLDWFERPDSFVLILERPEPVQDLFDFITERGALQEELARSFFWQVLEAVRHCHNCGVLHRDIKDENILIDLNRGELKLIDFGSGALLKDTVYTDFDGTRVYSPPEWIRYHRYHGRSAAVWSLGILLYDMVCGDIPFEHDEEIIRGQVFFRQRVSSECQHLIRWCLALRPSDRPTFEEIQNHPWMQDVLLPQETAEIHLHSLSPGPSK
Assay: PIM1 kinase activity test (Mobility shift assay)
Assay type: biochemical

compound: FC(F)(F)c1cccc(-c2cnc3ccc(NC4CC5(CCN(C6CC6)CC5)C4)nn23)c1
IC50: 10 to 100 nM
//
compound: CC(C)(O)[C@H]1CC[C@H](Nc2ccc3nc(C#N)c(-c4cccc(C(F)(F)F)c4)n3n2)CC1
IC50: 100 to 1000 nM
//
compound: FC(F)(F)c1cccc(-c2cnc3ccc(NCC4CC5(CCNCC5)C4)nn23)c1
IC50: 10 to 100 nM
//
compound: FC(F)(F)c1cccc(-c2cnc3ccc(NC4CCCNCC4)nn23)c1 (stereo not shown)
IC50: 2 to 10 nM

====

System: Ba/F3-EPOR-JAK2-V617F
Assay: Cell inhibitory activity test (72 h CTG)
Format: cell-based
Readings of IC50 for the listed compounds

compound: CC(C)(O)[C@H]1CC[C@H](Nc2ccc3ncc(-c4cccc(C(F)(F)F)c4)n3n2)CC1 [TP-3654, reference compound]
assayed target: Ba/F3-EPOR-JAK2-V617F
IC50: > 150 nM

compound: FC(F)(F)c1ccc(-c2cnc3ccc(NC4CCCNCC4)nn23)s1 (stereo not drawn)
assayed target: Ba/F3-EPOR-JAK2-V617F
IC50: 50 to 100 nM

compound: OC12CCC(Nc3ccc4ncc(-c5ccc(C(F)(F)F)s5)n4n3)(CC1)CC2
assayed target: Ba/F3-EPOR-JAK2-V617F
IC50: < 50 nM
